System: Human plasma kallikrein (Homo sapiens (Human), UniProt P03952)
Sequence (P03952 391-638): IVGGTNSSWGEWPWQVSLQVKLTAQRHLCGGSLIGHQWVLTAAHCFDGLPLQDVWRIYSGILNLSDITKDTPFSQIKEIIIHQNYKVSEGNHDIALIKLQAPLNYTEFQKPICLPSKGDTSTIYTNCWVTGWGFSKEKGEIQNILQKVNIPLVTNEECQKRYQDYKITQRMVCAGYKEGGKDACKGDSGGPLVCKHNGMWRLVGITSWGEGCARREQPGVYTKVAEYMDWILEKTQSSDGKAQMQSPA
Sequence (P03952 20-390 partner): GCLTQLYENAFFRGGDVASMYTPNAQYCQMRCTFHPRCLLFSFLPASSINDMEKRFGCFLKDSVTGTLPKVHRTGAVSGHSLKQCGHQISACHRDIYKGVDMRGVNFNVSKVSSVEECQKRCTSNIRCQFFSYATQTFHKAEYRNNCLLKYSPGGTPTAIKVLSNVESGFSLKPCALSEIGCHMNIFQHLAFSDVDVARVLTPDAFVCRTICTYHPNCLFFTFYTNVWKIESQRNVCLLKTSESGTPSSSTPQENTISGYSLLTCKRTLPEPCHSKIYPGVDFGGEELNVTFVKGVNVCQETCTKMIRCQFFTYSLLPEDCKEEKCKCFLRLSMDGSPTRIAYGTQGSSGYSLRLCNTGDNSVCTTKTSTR
Protocol Details: Determination of the IC50 for plasma kallikrein
Assay type: biochemical
Details: 37° C., substrate H-DPro-Phe-Arg-AFC, read-out: IC50 (human PKal)
pIC50: −log10 of the molar value.
Use 7 as the dividing line for pIC50, with the line itself on the TRUE side and lower values as FALSE.

Example entries begin here.
>  <Compound>
CCOc1ccc(C[C@@H](NC(=O)c2ccccn2)C(=O)N[C@@H](Cc2cccs2)C(=O)NCc2ccc(CN)cc2)cc1 [Example 157]

>  <Answer Label>
TRUE

$$$$
>  <Compound>
CCOc1ccc(C[C@@H](NC(=O)c2ccc(OC)cc2)C(=O)N[C@@H](Cc2ccccn2)C(=O)NCc2ccc(CN)cc2)cc1 [Example 158]

>  <Answer Label>
TRUE

$$$$
>  <Compound>
CCOc1ccc(C[C@@H](NC(=O)c2ccc(Cl)cc2)C(=O)N[C@@H](Cc2cccnc2)C(=O)NCc2ccc(CN)cc2)cc1 [Example 173]

>  <Answer Label>
FALSE

$$$$
>  <Compound>
CCOc1ccc(C[C@@H](NC(=O)c2sccc2NC(C)=O)C(=O)N[C@@H](Cc2ccsc2)C(=O)NCc2ccc(CN)cc2)cc1 [Example 193]

>  <Answer Label>
TRUE

$$$$
>  <Compound>
CCOc1ccc(C[C@@H](NC(=O)c2ccccc2)C(=O)N[C@@H](Cc2cscn2)C(=O)NCc2ccc(CN)cc2)cc1 [Example 152]

>  <Answer Label>
TRUE

$$$$
>  <Compound>
CCOc1ccc(C[C@@H](NC(=O)c2ccccn2)C(=O)N[C@@H](Cc2ccccc2)C(=O)NCc2ccc(CN)cc2)cc1 [Example 81]

>  <Answer Label>
TRUE

$$$$
>  <Compound>
CCOc1ccc(C[C@@H](NC(=O)c2ccccc2)C(=O)N[C@@H](Cc2ccccc2)C(=O)NCc2ccc(CN)c(Cl)c2)cc1 [Example 155]

>  <Answer Label>
TRUE

$$$$
>  <Compound>
CCOc1ccc(C[C@@H](NC(=O)c2ccccn2)C(=O)N[C@@H](Cc2ccccc2)C(=O)NCc2ccc(CN)c(Cl)c2)cc1 [Example 159]

>  <Answer Label>
TRUE

$$$$

Reported pIC50 at or above 7? CCOc1ccc(C[C@@H](NS(=O)(=O)Cc2ccccc2)C(=O)N[C@@H](Cc2ccccc2)C(=O)NCc2ccc(CN)cc2)cc1 [Example 100]
FALSE

Evaluate CCOc1ccc(C[C@@H](NC(=O)c2scnc2C)C(=O)N[C@@H](Cc2ccccc2)C(=O)NCc2ccc(CN)cc2)cc1 [Example 117] : pIC50 at minimum 7?
TRUE

Check this compound for pIC50 at or above 7: CCOc1ccc(C[C@@H](NC(=O)c2sccc2N)C(=O)N[C@@H](Cc2csc3ccccc23)C(=O)NCc2ccc(CN)cc2)cc1 [Example 194]
TRUE

* * *

// log10(solubility at 1 h) lookup, one value per entry
Protocol Details: Determination of thermodynamic solubility in phosphate buffer
Format: physicochemical
Details: pH 7.4, aqueous buffer, thermodynamic from solid, ammonium phosphate buffer pH7.4, 290 mOsm, 37° C., nominal 1 mg/mL, read-out: Solubility in PO4 buffer
Kindly note that the scale is log10 and the underlying solubility at 1 h is in µg/mL.

Below, each entry is followed by its recorded log10(solubility at 1 h) result.
>  <Smiles Notation>
CCOc1ccc(C[C@@H](NC(=O)c2ccccn2)C(=O)N[C@@H](Cc2ccccc2)C(=O)NCc2ccc(CN)c(Cl)c2)cc1

>  <Test Value>
0.06

$$$$
>  <Smiles Notation>
CCOc1ccc(C[C@@H](NC(=O)c2ccccc2)C(=O)N[C@@H](Cc2c[nH]c3ccccc23)C(=O)NCc2ccc(CN)cc2)cc1

>  <Test Value>
0.36

$$$$
>  <Smiles Notation>
CCOc1ccc(C[C@@H](NC(=O)c2sccc2Cl)C(=O)N[C@@H](Cc2cccnc2)C(=O)NCc2ccc(CN)cc2)cc1

>  <Test Value>
1.37

$$$$
>  <Smiles Notation>
CCOc1ccc(C[C@@H](NC(=O)c2ccc(C)cc2)C(=O)N[C@@H](Cc2cccnc2)C(=O)NCc2ccc(CN)cc2)cc1

>  <Test Value>
1.20

$$$$
>  <Smiles Notation>
CCOc1ccc(C[C@@H](NC(=O)c2ccccc2)C(=O)N[C@@H](Cc2cscn2)C(=O)NCc2ccc(CN)cc2)cc1

>  <Test Value>
2.09

$$$$
>  <Smiles Notation>
CCOc1ccc(C[C@@H](NC(=O)c2ccno2)C(=O)N[C@@H](Cc2cccnc2)C(=O)NCc2ccc(CN)cc2)cc1

>  <Test Value>
2.37

$$$$

# query: log10(solubility at 1 h) of entry "CCOc1ccc(C[C@@H](NC(=O)c2ccccc2)C(=O)N[C@@H](Cc2ccccc2)C(=O)NCc2ccc(CN)c(Cl)c2)cc1"
-0.36

Given the entry "CCOc1ccc(C[C@@H](NC(=O)c2ccccn2)C(=O)N[C@@H](Cc2cccs2)C(=O)NCc2ccc(CN)cc2)cc1" , report its measured log10(solubility at 1 h).
0.68

Field request: log10(solubility at 1 h) | item: "CCOc1ccc(C[C@@H](NC(=O)c2[nH]ccc2C)C(=O)N[C@@H](Cc2ccccc2)C(=O)NCc2ccc(CN)cc2)cc1"
1.81

# lookup: log10(solubility at 1 h) of "CCOc1ccc(C[C@@H](NC(=O)c2sccc2N)C(=O)N[C@@H](Cc2ccccc2)C(=O)NCc2ccc(CN)cc2)cc1"
1.64
